src = paper PMC9116722

Assay: Non-compartmental pharmacokinetics
Assay type: in vivo, human
Conditions: human, in vivo, oral
observed property: Vd/F (L)

INSERT INTO assay_data (molecule, observed_property, unit_symbol, test_result) VALUES
  ('C[C@]1(c2nc3c(C(N)=O)cccc3[nH]2)CCCN1 [veliparib]', 'Vd/F', 'L', 123);
